target: BCL6-POZ domain (residues 7 to 128 of human BCL6, C8Q, C67R, C84N) (UniProt P41182); test: fluorescence polarisation
measured.parameter: Kd (µM)

wild-type SMRT peptide, labelled with BODIPY TMR H1426(styrylalanine)    41
wild-type SMRT peptide, labelled with BODIPY TMR H1426(homophenylalanine)    43
